- Assay Notes: in vivo
- Design: species or system mouse (male SLC-ICR mice)
- Condition Context: mouse, 100 mg/kg, 120 min
Metric Name: Bioavailability (%)
// return numeric value only (unit: %, not printed)

| Compound | Metric Name | Recorded Number |
| --- | --- | --- |
| CCC(CC)C(=O)OC(C)OC(=O)C1=C(CSc2nnnn2CCN(C)C)CS[C@@H]2[C@H](NC(=O)Cc3csc(N)n3)C(=O)N12 (stereo partly drawn) [Example 21] | Bioavailability | 100.0 |
| CCCC(CCC)C(=O)OC(C)OC(=O)C1=C(CSc2nnnn2CCN(C)C)CS[C@@H]2[C@H](NC(=O)Cc3csc(N)n3)C(=O)N12 (stereo partly drawn) [Example 14] | Bioavailability | 66.0 |
| CCC(CC)CC(=O)OC(C)OC(=O)C1=C(CSc2nnnn2CCN(C)C)CS[C@@H]2[C@H](NC(=O)Cc3csc(N)n3)C(=O)N12 (stereo partly drawn) [Example 23] | Bioavailability | 78.2 |

If you can, please state the reported Bioavailability value of CC(C)CCC(=O)OC(C)OC(=O)C1=C(CSc2nnnn2CCN(C)C)CS[C@@H]2[C@H](NC(=O)Cc3csc(N)n3)C(=O)N12 (stereo partly drawn) [Example 8] .
52.8

Dear colleague, I am looking for the recorded Bioavailability of the following compound: CCCCCC(=O)OC(C)OC(=O)C1=C(CSc2nnnn2CCN(C)C)CS[C@@H]2[C@H](NC(=O)Cc3csc(N)n3)C(=O)N12 (stereo partly drawn) [Example 6]
67.5

Look up Bioavailability: CCCCCC(=O)OC(CC)OC(=O)C1=C(CSc2nnnn2CCN(C)C)CS[C@@H]2[C@H](NC(=O)Cc3csc(N)n3)C(=O)N12 (stereo partly drawn) [Example 16]
65.0

###

- Assay Notes: in vivo
- Set-up: species or system mouse (male SLC-ICR mice)
- Condition Context: mouse, po, 100 mg/kg, 120 min
Below: a set of entries, each annotated with reported AUC (area under plasma-concentration curve of non-ester form, 0 to 2 hr).
Report the value in ng·h/mL with no unit label.

Would you mind telling me what AUC (area under plasma-concentration curve of non-ester form, 0 to 2 hr) value was observed for CCCCCC(=O)OC(C)OC(=O)C1=C(CSc2nnnn2CCN(C)C)CS[C@@H]2[C@H](NC(=O)Cc3csc(N)n3)C(=O)N12 (some centres unmarked) ?
26200

Recorded AUC (area under plasma-concentration curve of non-ester form, 0 to 2 hr) for CCCCCCCC(=O)OC(C)OC(=O)C1=C(CSc2nnnn2CCN(C)C)CS[C@@H]2[C@H](NC(=O)Cc3csc(N)n3)C(=O)N12 (some centres unmarked) , please?
23500

AUC (area under plasma-concentration curve of non-ester form, 0 to 2 hr) for CCCCCC(=O)OC(CC)OC(=O)C1=C(CSc2nnnn2CCN(C)C)CS[C@@H]2[C@H](NC(=O)Cc3csc(N)n3)C(=O)N12 (some centres unmarked) ?
25200

Tell me the measured AUC (area under plasma-concentration curve of non-ester form, 0 to 2 hr) of CCC(CC)CC(=O)OC(C)OC(=O)C1=C(CSc2nnnn2CCN(C)C)CS[C@@H]2[C@H](NC(=O)Cc3csc(N)n3)C(=O)N12 (some centres unmarked) , please.
30300

Requested field: AUC (area under plasma-concentration curve of non-ester form, 0 to 2 hr). Item: CCC(CC)C(=O)OC(C)OC(=O)C1=C(CSc2nnnn2CCN(C)C)CS[C@@H]2[C@H](NC(=O)Cc3csc(N)n3)C(=O)N12 (some centres unmarked)
38800

Name the recorded AUC (area under plasma-concentration curve of non-ester form, 0 to 2 hr) for CCCC(CCC)C(=O)OC(C)OC(=O)C1=C(CSc2nnnn2CCN(C)C)CS[C@@H]2[C@H](NC(=O)Cc3csc(N)n3)C(=O)N12 (some centres unmarked) .
25600

Entry CC(C)CCC(=O)OC(C)OC(=O)C1=C(CSc2nnnn2CCN(C)C)CS[C@@H]2[C@H](NC(=O)Cc3csc(N)n3)C(=O)N12 (some centres unmarked) : reported AUC (area under plasma-concentration curve of non-ester form, 0 to 2 hr) = ?
20500

If you can, please state the reported AUC (area under plasma-concentration curve of non-ester form, 0 to 2 hr) value of CCC(C)CC(=O)OC(C)OC(=O)C1=C(CSc2nnnn2CCN(C)C)CS[C@@H]2[C@H](NC(=O)Cc3csc(N)n3)C(=O)N12 (some centres unmarked) .
36200

###

- Assay Notes: in vivo
- Parameters: species or system mouse (male SLC-ICR mice)
- Condition Context: mouse, 100 mg/kg, 120 min
Metric Name: Bioavailability (%)
API: value field is a number in %; no unit string.

| Compound | Recorded Number |
| --- | --- |
| CCCCCCCC(=O)OC(C)OC(=O)C1=C(CSc2nnnn2CCN(C)C)CS[C@@H]2[C@H](NC(=O)Cc3csc(N)n3)C(=O)N12 (stereo partly drawn) | 60.6 |
| CN(C)CCn1nnnc1SCC1=C(C(=O)OCOC(=O)C(C)(C)C)N2C(=O)[C@@H](NC(=O)Cc3csc(N)n3)[C@H]2SC1 [Compound A, reference compound] | 41.8 |

For the next question, use this compound.
Fill in the blank: the reported Bioavailability of CCC(C)CC(=O)OC(C)OC(=O)C1=C(CSc2nnnn2CCN(C)C)CS[C@@H]2[C@H](NC(=O)Cc3csc(N)n3)C(=O)N12 (stereo partly drawn) is ____.
93.2

###

- Assay Notes: in vivo
- Parameters: species or system mouse (male SLC-ICR mice)
- Condition Context: mouse, sc
- Experimental: Test compounds: compounds obtained in examples 6, 8, 10, 13, 14, 16, 21, 23 and compound for control: pivaloyloxymethyl 7β-[2-(2-aminothiazol-4-yl)acetamido]-3-[[[1-(2-dimethylaminoethyl)-1H-tetrazol-5-yl]thio]methyl]-ceph-3-em-4-carboxylate (This will be referred to simply "compound A" hereinafter). […] Control test: an aqueous solution of non-ester form of the Compound I in an amount of 10 ml water/Kg mouse body weight, was subcutaneously applied and AUC was calculated in the same manner as above. […]
Metric Name: AUC at 2 h (ng·h/mL)
Enter your answer as a number in ng·h/mL; do not include the unit.

Look at this molecule and give its reported AUC at 2 h. CN(C)CCn1nnnc1SCC1=C(C(=O)O)N2C(=O)[C@@H](NC(=O)Cc3csc(N)n3)[C@H]2SC1 [non-ester form of Compound I, reference compound]
38800

Every entry's value here was drawn from patent US4497809A.
